Reference for the values: PubChem BioAssay

target: Torsin-1A (Homo sapiens); experiment: torsin A mutant lysate binding on microarrays – cell lysate, small-molecule microarray, COS7 lysate, 635/667 nm fluorescence, primary screen (AID 1150); conditions: COS7 hTOR1A mutant lysate, 635 nm fluorescence, higher = more signal;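 further: score pools 667 nm emission and signal to noise measuring lysate protein binding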
Quantity Measured: composite z-score
Answer as a number with no unit attached.

[
  {
    "Molecule": "CN(C)C(=O)[C@@]1(Cc2ccccc2N=[N+]=[N-])N=C(c2ccc(OCCCO)cc2)O[C@H]1c1ccccc1N=[N+]=[N-]",
    "Quantity Measured": "composite z-score",
    "Measured Result": 0.776
  },
  {
    "Molecule": "O=C(O)[C@]1(CCS(=O)(=O)c2ccccc2)N=C(c2ccc(OCCCO)cc2)O[C@@H]1c1ccccc1",
    "Quantity Measured": "composite z-score",
    "Measured Result": -0.301
  },
  {
    "Molecule": "COC(=O)c1ccc(OC)c(/C=C\\CC(CCc2ccccc2)OC(=O)c2ccncc2)c1 (centres undefined)",
    "Quantity Measured": "composite z-score",
    "Measured Result": 0.092
  }
]

Next, consider the following molecule.
(Q) Find the recorded composite z-score belonging to `COC(=O)C(CC#Cc1ccc2c(c1)[C@]1(C(=O)N2)[C@H](c2ccc(O)cc2)N2[C@H](c3ccccc3)[C@H](c3ccccc3)OC(=O)[C@H]2[C@@H]1C(N)=O)C(=O)OC` and report it.
(A) -0.491
